- Subject Of Test: T1, FcRL6, overexpressed on 3T3 cells (UniProt Q6DN72 20-434, limits assumed)
- T1 construct: whole, on cells
- T1 sequence (looked up): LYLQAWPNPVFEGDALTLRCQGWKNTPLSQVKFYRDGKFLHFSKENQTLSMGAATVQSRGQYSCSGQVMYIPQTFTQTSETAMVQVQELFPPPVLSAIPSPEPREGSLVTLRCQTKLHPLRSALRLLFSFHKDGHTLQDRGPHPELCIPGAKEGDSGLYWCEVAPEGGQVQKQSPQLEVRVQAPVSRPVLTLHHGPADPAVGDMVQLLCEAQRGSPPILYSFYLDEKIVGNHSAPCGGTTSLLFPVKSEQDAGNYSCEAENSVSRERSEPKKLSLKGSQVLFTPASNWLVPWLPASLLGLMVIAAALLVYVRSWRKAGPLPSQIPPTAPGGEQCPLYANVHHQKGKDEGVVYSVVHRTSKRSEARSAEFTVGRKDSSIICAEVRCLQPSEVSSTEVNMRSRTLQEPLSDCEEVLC
- Test Method Notes: phage clone on 3T3-FcRL6 cells

Binder	binding result
ET200-044 (scFv, screened as phage clone; entry is VL-linker-VH-His tag-HA tag) scFv: QSVLTQPPSVSVSPGQTATIACSGHKLGDKYASWYQQKSGQSPVLIIYQDNKRPSGIPERFSGSNSGNTATLTISGTQALDEADYYCQAWDSSTYVAFGGGTKLTVLGSRGGGGSGGGGSGGGGSLEMAQVQLQESGPGLVKPSETLSLTCVVSGGSISSSNWWSWVRQPPGKGLEWIGEIYHSGSPNYNPSLKSRVTISVDKSKNQFSLKLSSVTAADTAVYYCARMTTHTFGYDAWGQGTLVTVSSTSGQAGQHHHHHHGAYPYDVPDYAS	no binding
ET200-017 (scFv, screened as phage clone; entry is VL-linker-VH-His tag-HA tag) scFv: SYVLTQPPSVSVAPGKTARITCGGNNIGSKSVHWYQQKPGQAPVLVVYDDSDRPSGIPERFSGSNSGNTATLSISRVEAGDEADYYCQVWDSSSDHTVFGTGTKVTVLGSRGGGGSGGGGSGGGGSLEMAQVQLQQWGAGLLKPSETLSLTCAVYGGSFSGYYWSWIRQPPGKGLEWIGEINHSGSTNYNPSLKSRVTISVDTSKNQFSLKLSSVTAADTAVYYCARYYPGMDMWGQGTLVTVSSTSGQAGQHHHHHHGAYPYDVPDYAS	no binding
